SYSTEM NAME: Free fatty acid receptor 4 (Homo sapiens) (UniProt Q5NUL3)
TEST SUMMARY: Agonist activity at human GPR120-G-alpha-16 fusion protein expressed in Flp-in HEK293 cells assessed as effect on intracellular calcium concentration at 10 uM by FLIPR assay relative to […]
Type: functional, cell-based
PROPERTY NAME: Activity (%)
Quick note: give the figure in %, leave out the unit.

Cc1ccnc(N(CCOc2ccc(CCCC(=O)O)cc2)c2ccccc2)c1 : 81

Q: Answer with the recorded Activity of O=C(O)CCCc1ccc(OCCN(c2ccccc2)c2ccccc2)cc1 only.
Result: 88

Q: Answer with the recorded Activity of O=C(O)CCCc1ccc(OCCN(c2ccccc2)c2nccs2)cc1 only.
Result: 106

Q: Answer with the recorded Activity of CCCCCCCN(CCOc1ccc(CCC(=O)O)cc1)c1ccccn1 only.
Result: 0

---

SYSTEM NAME: UniProt:O14842
TEST SUMMARY: Agonist activity at human GPR40 expressed in T-REx HEK293 cells assessed as effect on intracellular calcium concentration at 10 uM by FLIPR assay relative to […]
Type: functional, cell-based
Cut-off 40% on Activity, inclusive. At or above means Yes; below means No.

O=C(O)CCc1ccc(OCCN(c2ccccn2)c2ccccn2)cc1 : No
CCCCN(CCOc1ccc(CCCC(=O)O)cc1)c1ccccn1 : No
Cc1ccc(N(CCOc2ccc(CCCC(=O)O)cc2)c2ccccn2)cc1 : No
O=C(O)CCCc1ccc(OCCN(c2ccccc2)c2ccccn2)cc1 : No

Q: Identify whether the reported Activity of the following compound is 40% or greater: O=C(O)CCCc1ccc(OCCN(c2ccccc2)c2ccccc2)cc1
Result: No

---

SYSTEM NAME: Free fatty acid receptor 4 (Homo sapiens)
Sequence (Q5NUL3 whole entry): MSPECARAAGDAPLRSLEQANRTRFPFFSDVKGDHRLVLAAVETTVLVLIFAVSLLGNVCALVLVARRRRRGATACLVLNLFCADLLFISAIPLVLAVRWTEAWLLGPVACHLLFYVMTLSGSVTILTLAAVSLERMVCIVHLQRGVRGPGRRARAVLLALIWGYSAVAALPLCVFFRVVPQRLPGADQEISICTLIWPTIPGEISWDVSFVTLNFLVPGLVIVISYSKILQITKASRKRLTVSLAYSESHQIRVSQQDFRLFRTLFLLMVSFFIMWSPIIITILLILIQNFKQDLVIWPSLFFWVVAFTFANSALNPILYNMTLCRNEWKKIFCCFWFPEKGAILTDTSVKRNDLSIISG
TEST SUMMARY: Agonist activity at human GPR120-G-alpha-16 fusion protein expressed in Flp-in HEK293 cells assessed as effect on intracellular calcium concentration by FLIPR assay
Recorded pEC50 values for a group of molecules are listed next.
Kindly note that pEC50 refers to -log10 of the concentration in mol/L and answer with the value alone.

Example results:
O=C(O)CCCc1ccc(OCCN(c2ccccc2)c2nccs2)cc1 : 5.77
O=C(O)CCCc1ccc(OCCN(c2ccccc2)c2ccccn2)cc1 : 5.92

Now for a further molecule.
Q: Answer with the recorded pEC50 of CC/C=C\C/C=C\C/C=C\CCCCCCCC(=O)O only.
Result: 5.59

---

SYSTEM NAME: Free fatty acid receptor 4 (Homo sapiens) (UniProt Q5NUL3)
TEST SUMMARY: Agonist activity at human GPR120-G-alpha-16 fusion protein expressed in Flp-in HEK293 cells assessed as effect on intracellular calcium concentration at 10 uM by FLIPR assay relative to […]
Format: functional, cell-based
Mark YES only for Activity values smaller than 60%; exact matches and larger values are NO.

Solved entries (count: 3):
O=C(O)CCc1ccc(OCCN(c2ccccc2)c2ccccn2)cc1 : YES
CN(CCOc1ccc(CCC(=O)O)cc1)c1ccccn1 : YES
CCN(CCOc1ccc(CCC(=O)O)cc1)c1ccccn1 : YES

Q: Is it true that Activity reported for O=C(O)CCCCc1ccc(OCCN(c2ccccc2)c2ccccn2)cc1 is less than 60%?
Result: YES

Q: Is it true that Activity reported for CCCCCCN(CCOc1ccc(CCC(=O)O)cc1)c1ccccn1 is less than 60%?
Result: YES

Q: Is it true that Activity reported for O=C(O)CCCc1ccc(OCCN(c2ccc3ccccc3c2)c2ccccn2)cc1 is less than 60%?
Result: YES

Q: Is it true that Activity reported for O=C(O)CCCc1ccc(OCCN(c2cccnc2)c2ccccn2)cc1 is less than 60%?
Result: NO

Q: Is it true that Activity reported for CCCCN(CCOc1ccc(CCCC(=O)O)cc1)c1ccccn1 is less than 60%?
Result: YES

Q: Is it true that Activity reported for CCCN(CCOc1ccc(CCC(=O)O)cc1)c1ccccn1 is less than 60%?
Result: YES

Q: Is it true that Activity reported for Cc1ccc(N(CCOc2ccc(CCCC(=O)O)cc2)c2ccccn2)cc1 is less than 60%?
Result: NO

Q: Is it true that Activity reported for O=C(O)CCCc1ccc(OCCN(Cc2ccccc2)c2ccccn2)cc1 is less than 60%?
Result: YES

Q: Is it true that Activity reported for O=C(O)CCCc1ccc(OCCN(c2ccccc2)c2nc3ccccc3s2)cc1 is less than 60%?
Result: NO

Q: Is it true that Activity reported for CCCCN(CCOc1ccc(CCC(=O)O)cc1)c1ccccn1 is less than 60%?
Result: YES

Q: Is it true that Activity reported for O=C(O)CCCc1ccc(OCCN(c2ccccc2)c2cc(Cl)ccn2)cc1 is less than 60%?
Result: NO

Q: Is it true that Activity reported for Cc1cccc(N(CCOc2ccc(CCCC(=O)O)cc2)c2ccccc2)n1 is less than 60%?
Result: NO

Q: Is it true that Activity reported for CCCCCCCCCN(CCOc1ccc(CCC(=O)O)cc1)c1ccccn1 is less than 60%?
Result: YES

Q: Is it true that Activity reported for O=C(O)CCCc1ccc(OCCN(c2cccc(F)c2)c2ccccn2)cc1 is less than 60%?
Result: NO

Q: Is it true that Activity reported for O=C(O)CCCc1ccc(OCCN(c2ccccc2)c2nc3ccccc3o2)cc1 is less than 60%?
Result: YES

Q: Is it true that Activity reported for O=C(O)CCCc1ccc(OCCN(c2ccccc2)c2ccccn2)cc1 is less than 60%?
Result: NO

Q: Is it true that Activity reported for O=C(O)CCCc1ccc(OCCN(c2ccccc2)c2cccc(Cl)n2)cc1 is less than 60%?
Result: NO

Q: Is it true that Activity reported for O=C(O)CCc1ccc(OCCN(c2ccccn2)c2ccccn2)cc1 is less than 60%?
Result: YES

Q: Is it true that Activity reported for CC/C=C\C/C=C\C/C=C\CCCCCCCC(=O)O [LINOLENIC ACID] is less than 60%?
Result: NO

---

SYSTEM NAME: Free fatty acid receptor 1 (Homo sapiens)
Sequence (O14842 whole entry): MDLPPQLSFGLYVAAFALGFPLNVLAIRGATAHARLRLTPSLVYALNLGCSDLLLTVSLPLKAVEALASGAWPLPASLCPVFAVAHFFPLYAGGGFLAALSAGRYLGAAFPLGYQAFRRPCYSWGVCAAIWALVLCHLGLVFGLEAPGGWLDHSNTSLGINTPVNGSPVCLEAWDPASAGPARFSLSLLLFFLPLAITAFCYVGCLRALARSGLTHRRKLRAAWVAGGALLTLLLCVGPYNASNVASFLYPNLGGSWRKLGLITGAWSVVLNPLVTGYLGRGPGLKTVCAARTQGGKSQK
TEST SUMMARY: Agonist activity at human GPR40 expressed in T-REx HEK293 cells assessed as effect on intracellular calcium concentration at 10 uM by FLIPR assay relative to […]
Format: functional, cell-based
Mark T only for Activity values smaller than 70%; exact matches and larger values are F.

Solved entries (count: 3):
O=C(O)CCc1ccc(OCCN(c2ccccc2)c2ccccn2)cc1 : F
O=C(O)CCCc1ccc(OCCN(c2ccccc2)c2cccc(Cl)n2)cc1 : T
O=C(O)CCCc1ccc(OCCN(c2ccc3ccccc3c2)c2ccccn2)cc1 : T

Let's switch to this compound now.
Q: Is it true that Activity reported for CCCCN(CCOc1ccc(CCC(=O)O)cc1)c1ccccn1 is less than 70%?
Result: F

---

SYSTEM NAME: Free fatty acid receptor 1 (Homo sapiens)
TEST SUMMARY: Agonist activity at human GPR40 expressed in T-REx HEK293 cells assessed as effect on intracellular calcium concentration at 10 uM by FLIPR assay relative to […]
Format: functional, cell-based
PROPERTY NAME: Activity (%)
Quick note: give the figure in %, leave out the unit.

O=C(O)CCCc1ccc(OCCN(c2cccnc2)c2ccccn2)cc1 : 1
O=C(O)CCCc1ccc(OCCN(Cc2ccccc2)c2ccccn2)cc1 : 26
CCCCCCCCCN(CCOc1ccc(CCC(=O)O)cc1)c1ccccn1 : 121
CC/C=C\C/C=C\C/C=C\CCCCCCCC(=O)O [LINOLENIC ACID] : 100
O=C(O)CCCc1ccc(OCCN(c2ccc(F)cc2)c2ccccn2)cc1 : 23

Q: Answer with the recorded Activity of CCCCCCN(CCOc1ccc(CCC(=O)O)cc1)c1ccccn1 only.
Result: 104

Q: Answer with the recorded Activity of O=C(O)CCCc1ccc(OCCN(c2cccc(F)c2)c2ccccn2)cc1 only.
Result: 33

---

Recorded EC50 values for a group of compounds are listed next.
SYSTEM NAME: Free fatty acid receptor 1 (Homo sapiens)
TEST SUMMARY: Agonist activity at human GPR40 expressed in T-REx HEK293 cells assessed as effect on intracellular calcium concentration by FLIPR assay
Quick note: give the figure in µM, leave out the unit.

Example results:
O=C(O)CCCc1ccc(OCCN(c2ccccc2)c2nccs2)cc1 : 21
CC/C=C\C/C=C\C/C=C\CCCCCCCC(=O)O [LINOLENIC ACID] : 5.2

Now for a further compound.
Q: Answer with the recorded EC50 of O=C(O)CCCc1ccc(OCCN(c2ccccc2)c2ccccn2)cc1 only.
Result: 19

Measured values drawn from ChEMBL document CHEMBL1140222 for this set.
